For each entry below, report its GI50 value.
- Test system: K562
- EXPERIMENT: NCI tumour cell line growth inhibition, 48 h
Activity calls are given as the source filed them. Rule as the data show it: active = GI50 up to about 1.1 µM and inactive = higher.

// query GI50 value for entry C=C(C)C1CCC2(CO)C(O)CC3(C)C(CCC4C5(C)CCC(O)C(C)(C)C5CCC43C)C12 (centres undefined)
9.77 µM (inactive)

// query GI50 value for entry `CN(C)c1ccc(C(C=C2c3ccccc3Sc3ccccc32)=C(C#N)C#N)cc1`
5.65 µM (inactive)

// query GI50 value for entry `O=C1C=CC2(C=C1)C[C@H](NC(=O)C(F)(F)F)C(=O)O2`
20.4 µM (inactive)

// query GI50 value for entry Nc1nc(Cl)cc(NCC2(CO)CCC(O)C2)n1 (centres undefined)
> 100 µM (inactive)

// query GI50 value for entry `Cc1cc2c(O)c(c1)COCc1cc(C)cc(c1O)COCc1cc(C)cc(c1O)COC2`
> 100 µM (inactive)

// query GI50 value for entry CCC12C=CCN3CC[C@]4(C(=C(C(=O)OC)[C@@H]1Nc1ccn(C5OC(COC(C)=O)C(OC(C)=O)C5OC(C)=O)c(=O)n1)Nc1ccccc14)C32 (some centres undefined)
5.08 µM (inactive)

// query GI50 value for entry `O=C1CCC(=O)N1CNc1ccc2c(c1)Sc1ccccc1O2`
49.8 µM (inactive)

// query GI50 value for entry CCCC(C)NC(=O)c1ccc(N(C)Cc2cnc3nc(N)nc(N)c3n2)cc1 (centres undefined)
8 µM (inactive)

// query GI50 value for entry `[O-][S+]1Nc2c(Cl)cc(Cl)c3c(Cl)cc(Cl)c(c23)N1`
41.5 µM (inactive)

// query GI50 value for entry C[C@]12Cc3cn[nH]c3C(=O)C1CC[C@@H]1C2CC[C@@]2(C)C1CC[C@]2(C)O (some centres undefined)
> 100 µM (inactive)

// query GI50 value for entry `O=C1c2ccccc2C(=O)N1c1ccc(OCCN2CCCCC2)cc1`
> 100 µM (inactive)

// query GI50 value for entry `COc1ccc([N+](=O)[O-])c2c(NCCCN(C)C)c(C)c(C)nc12`
37.6 µM (inactive)

// query GI50 value for entry `COc1cc2c(cc1OC)-c1cc3cc(OC)c(OC)cc3n1CC2`
26.3 µM (inactive)

// query GI50 value for entry CCN1CCC(O)(c2ccc(Oc3ccc(Cl)cc3)cc2)C(C(=O)c2ccc(Oc3ccc(Cl)cc3)cc2)C1 (centres undefined)
5.28 µM (inactive)

###

- Tested on: NCI-H226
- EXPERIMENT: NCI tumour cell line growth inhibition, 48 h
Active and inactive are the calls of the source. No stated cut-off is given here; in the data, active = GI50 up to about 1.1 µM and inactive = higher.
Thanks in advance; please answer with one of these: active, inactive

Check the results log: what was the call for `CN1c2ccccc2C(=O)NC12CCN(Cc1ccccc1)CC2` ?
inactive

Check the results log: what was the call for COc1cc(C(c2cc3c(cc2O)OCO3)N2CCCC2)cc(OC)c1OC (configuration not stated) ?
inactive

Check the results log: what was the call for `CCCCc1c(C(=O)OC(C)(C)C)cc(C#Cc2cc(C(=O)OC(C)(C)C)c(CCCC)c(C(=O)OC(C)(C)C)c2)cc1C(=O)OC(C)(C)C` ?
inactive

Check the results log: what was the call for `CNCCCNC(=S)Cn1cc(C)c(=O)[nH]c1=O` ?
inactive

Check the results log: what was the call for CC1=C[C@H]2c3c([nH]c4ccccc34)C(c3c[nH]c4ccccc34)[C@H]2CC1 (some centres not stated) ?
inactive

Check the results log: what was the call for `CC(=NNC(=S)Nc1ccccc1)c1cccc(C(C)=NNC(=S)Nc2ccccc2)n1` ?
active

Check the results log: what was the call for CCOC(=O)C1=C(C)NC(=O)NC1c1ccc(OC)cc1OC (configuration not stated) ?
inactive

Check the results log: what was the call for `S=C(NN=C1NCCCCN1)Nc1ccc(Cl)cc1` ?
inactive

Check the results log: what was the call for COC1/C=C\OC2(C)Oc3c(C)c(O)c4c(O)c(c(CN(C)C)c(O)c4c3C2=O)NC(=O)/C(C)=C\C=C/C(C)C(O)C(C)C(O)C(C)C(OC(C)=O)C1C (configuration not stated) ?
inactive

Check the results log: what was the call for `COC(=O)C1=C(C(=O)OC)SC(=CC#CC=C2SC(C(=O)OC)=C(C(=O)OC)S2)S1` ?
inactive

Check the results log: what was the call for CC1(C)c2ccccc2N2O[C@@H]3C(=O)N(c4ccccc4)C(=O)[C@@H]3C21c1ccccc1 (some centres not stated) ?
inactive

Check the results log: what was the call for CC1CCP(=O)(c2ccccc2)c2ccccc21 (configuration not stated) ?
inactive

Check the results log: what was the call for `O[C@@H]1C[C@@H]2N[C@@](O)(C[C@@H]2O)[C@H]1O` ?
inactive

Check the results log: what was the call for `Cc1ccccc1N(CC(=O)O)S(=O)(=O)c1ccccc1` ?
inactive

Check the results log: what was the call for CC1(C)C(=O)C2(C#N)CCC1C2 (configuration not stated) ?
inactive

Check the results log: what was the call for `O=[N+]([O-])c1ccc2c(c1)S(=O)(=O)N1Cc3ccccc3CCN21` ?
inactive

Check the results log: what was the call for `COc1cc2c(cc1O)C(=O)O[C@@H]1CC=C3CCN(C)[C@H]3[C@H]21` ?
inactive

Check the results log: what was the call for `COc1cc2c(cc1OC)-c1cc3cc(OC)c(OC)cc3n1CC2` ?
inactive

Check the results log: what was the call for `COc1ccc(OC(C)=O)c2c1CCC=CC2=O` ?
inactive

Check the results log: what was the call for CCC1c2cc3n(c(=O)c2COC1O)Cc1c-3nc2ccccc2c1Cl (configuration not stated) ?
inactive

Check the results log: what was the call for `c1ccc2c(c1)CCc1c(-c3n[nH]c4c3CCc3ccccc3-4)n[nH]c1-2` ?
inactive

Check the results log: what was the call for `COP(=O)(OC)OCN(C)CC/C=C(\C)CC/C=C(\C)CCC=C(C)C` ?
inactive

Check the results log: what was the call for `O=C1C(Cl)=C(N2CCN(c3ccccn3)CC2)C(=O)c2ncccc21` ?
inactive

Check the results log: what was the call for CCN1CCC(O)(c2ccc(Oc3ccc(Cl)cc3)cc2)C(C(=O)c2ccc(Oc3ccc(Cl)cc3)cc2)C1 (configuration not stated) ?
inactive

Check the results log: what was the call for `N#Cc1c(-c2ccc([N+](=O)[O-])cc2)cc(-c2ccc(Nc3ccnc4cc(C(F)(F)F)ccc34)cc2)nc1N` ?
inactive

Check the results log: what was the call for `COc1ccc(-c2csc3c2-n2cccc2C3=O)cc1` ?
inactive

Check the results log: what was the call for `COC(=O)Cc1nn2c(nc1=O)sc1ccc3ccccc3c12` ?
inactive

Check the results log: what was the call for `CC(C)(C)OC(=O)NCC(CNC(=O)OC(C)(C)C)c1nc(C(N)=O)cs1` ?
inactive

Check the results log: what was the call for `CSc1nc(C#N)c(N)n1C` ?
inactive

Check the results log: what was the call for `O=C1C(Cl)=C(N2CCN(CCOCCO)CC2)C(=O)c2c(O)ccc(O)c21` ?
inactive

Check the results log: what was the call for O=C(NN1C(=O)C(Cl)C1c1cccc(O)c1)c1ccccc1O (configuration not stated) ?
inactive

Check the results log: what was the call for OC(CCN1CCN(CCOC(c2ccc(F)cc2)c2ccc(F)cc2)CC1)c1ccc(Br)cc1 (configuration not stated) ?
inactive

Check the results log: what was the call for `O=C(Nc1sccc1S(=O)(=O)c1ccc(Cl)cc1)c1ccc(F)cc1F` ?
inactive

Check the results log: what was the call for `COc1ccc(/C=c2\sc3nnc(CCC(=O)Nc4cccc(C(F)(F)F)c4)n3c2=O)cc1` ?
inactive

Check the results log: what was the call for `O=c1[nH]nc(-c2ccc3ccccc3c2)[nH]1` ?
inactive

Check the results log: what was the call for COCC1OC(Sc2ccccc2)C(O)C(OC)C1OC (configuration not stated) ?
inactive

Check the results log: what was the call for `O=C1C=CC2(C=C1)C[C@H](NC(=O)C(F)(F)F)C(=O)O2` ?
inactive

Check the results log: what was the call for `C/C(=N\NC(=S)NC(C)C)c1nc2cccnc2[nH]1` ?
inactive

Check the results log: what was the call for Cc1ccc(S(=O)(=O)OCCC2CN(C(=O)OCc3ccccc3)C(C)(C)O2)cc1 (configuration not stated) ?
active

Check the results log: what was the call for `Nn1c(CNc2ccc(-c3nnc(Nc4ccc(Cl)cc4)n3N)cc2)nnc1Nc1ccc(Cl)cc1` ?
inactive

Check the results log: what was the call for O=C(OC1C=C=CS(=O)(=O)CC#C/C=C\1)c1cnc2ccccc2n1 (configuration not stated) ?
inactive

Check the results log: what was the call for `O=[N+]([O-])C(/C=C(\Cl)n1nnc2ccccc21)=C(/Cl)n1nnc2ccccc21` ?
inactive
